Data origin: patent US20250214969A1

Target: truncated His-MBP-Tev-KLHDC2 (residues 1-363) (Homo sapiens, UniProt Q9Y2U9)
Construct: truncated His -MBP-Tev-KLHDC2 (residues 1-363) purified from E. coli; made in house; host or cells: E. coli
Assay: KLHDC2 HTRF binding assay
Details: 1 nM KLHDC2 (residues 1-363), fluorescein-labeled diglycine peptide probe
Property label: IC50

Example entries begin here.
CC(C)Cn1ncc2c(C(=O)Nc3ccc(=O)n(CC(=O)O)c3)cccc21 [I-136]; 500 to 5000 nM
CC(C)Cn1ccc2c(C(=O)Nc3ccc(=O)n(CC(=O)O)c3)cccc21 [I-238]; 50 to 500 nM
O=C(O)Cn1cc(NC(=O)CCNC(=O)c2ccc3ccccc3c2)ccc1=O [I-190]; > 5000 nM
COc1cncc(N2CCC[C@H](C(=O)Nc3ccc(Cl)c(CC(=O)O)c3)C2)c1 [I-20]; 50 to 500 nM

Please examine the following record next.
Q: Data request, read-out IC50, for O=C(O)Cn1cc(NC(=O)[C@@H]2CCCN(c3cccnc3)C2)ccc1=O [I-92]
A: 50 to 500 nM

###

Target: truncated His-MBP-Tev-KLHDC2 (residues 1-363) (Homo sapiens, UniProt Q9Y2U9)
Construct: truncated His -MBP-Tev-KLHDC2 (residues 1-363) purified from E. coli; made in house; host or cells: E. coli
Sequence (Q9Y2U9 1-363): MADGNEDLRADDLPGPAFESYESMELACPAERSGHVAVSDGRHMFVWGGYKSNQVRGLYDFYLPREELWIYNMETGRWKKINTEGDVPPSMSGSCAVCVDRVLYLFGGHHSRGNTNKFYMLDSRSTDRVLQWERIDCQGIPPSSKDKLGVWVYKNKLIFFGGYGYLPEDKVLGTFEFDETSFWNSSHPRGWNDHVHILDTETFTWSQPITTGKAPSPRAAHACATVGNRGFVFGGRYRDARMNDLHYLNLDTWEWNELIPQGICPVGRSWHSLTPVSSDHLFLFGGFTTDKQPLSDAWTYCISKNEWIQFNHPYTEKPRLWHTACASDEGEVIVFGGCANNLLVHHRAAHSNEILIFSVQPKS
Experiment: KLHDC2 HTRF binding assay
Conditions: 1 nM KLHDC2 (residues 1-363), fluorescein-labeled diglycine peptide probe
pIC50: −log10 of the molar value.
Reported pIC50 values follow for various compounds

In the examples that follow, each entry is paired with its recorded pIC50.
C[C@@H](C(=O)O)n1cc(NC(=O)c2cccc(-c3cccnc3)c2)ccc1=O; < 5.30
O=C(O)Cn1cc(-c2ccc(N3CCCC3)nc2)ccc1=O; < 5.30
O=C(O)C1CC(=O)N(CCOc2ccccc2Cl)C1 (stereo not shown); < 5.30
O=C(O)Cn1cc(NC(=O)c2cccc(-c3nc4ccccc4s3)c2)ccc1=O; 6.30 to 7.30
O=C(O)Cn1cc(N2CCc3ccc(-c4cccnc4)cc3C2=O)ccc1=O; 6.30 to 7.30
CCN(CC)c1ccc2cc(C(=O)Nc3ccc(=O)n(CC(=O)O)c3)c(=O)oc2c1; 6.30 to 7.30

Q: Entry O=C(O)Cn1cc(NC(=O)c2ccc(-c3cccnc3)cc2)ccc1=O has what pIC50?
A: 5.30 to 6.30

Q: Form field: reported pIC50 of O=C(O)Cn1cc(NC(=O)COc2cccc3ncccc23)ccc1=O
A: < 5.30

Q: What value of measured pIC50 is listed for O=C(O)Cc1cc(NC(=O)[C@H]2CCCN(c3cncc4ccccc34)C2)ccc1Cl ?
A: > 7.30

Q: Can you share its pIC50? I mean this compound: O=C(O)Cn1cc(-c2cccc(CN3CCCCC3)c2)ccc1=O
A: < 5.30

###

The entries below are paired with their reported pIC50.
Target: truncated His-MBP-Tev-KLHDC2 (residues 1-363) (Homo sapiens, UniProt Q9Y2U9)
Construct: truncated His -MBP-Tev-KLHDC2 (residues 1-363) purified from E. coli; made in house; host or cells: E. coli
Experiment: KLHDC2 HTRF binding assay
Conditions: 1 nM KLHDC2 (residues 1-363), fluorescein-labeled diglycine peptide probe
pIC50: −log10 of the molar value.

Here is how some molecules turned out for pIC50.
CNc1cncc(N2CCC[C@H](C(=O)Nc3ccc(F)c(CC(=O)O)c3)C2)c1; 6.30 to 7.30
CC(NC(=O)CCC(=O)O)C(=O)c1ccccc1 (stereo not shown); < 5.30
O=C(O)Cn1cc(NC(=O)c2cccc(-c3ccncc3)c2)ccc1=O; < 5.30
CC(C)c1ccc(C(=O)Nc2ccc(=O)n(CC(=O)O)c2)cc1-c1ccccc1; 5.30 to 6.30
Cc1c(NC(=O)c2cccc(-c3cccnc3)c2)ccc(=O)n1CC(=O)O; < 5.30

Q: Data request, read-out pIC50, for CCc1cc(=O)n(CC(=O)O)cc1NC(=O)[C@H]1CCCN(c2cccnc2)C1
A: 6.30 to 7.30

Q: // lookup pIC50 for CC1(C)CCc2c(C(=O)Nc3ccc(=O)n(CC(=O)O)c3)csc2C1
A: 5.30 to 6.30

Q: Entry COc1ccc(-c2ccc(=O)n(CC(=O)O)c2)cn1 : reported pIC50 = ?
A: < 5.30

Q: Given the entry CCN1C(=O)CCC(C(=O)O)C1c1cnn(C)c1 (stereo not shown) , report its measured pIC50.
A: < 5.30

Q: Which measured pIC50 value corresponds to O=C(O)Cn1cc(C(=O)Nc2ccccc2)ccc1=O ?
A: < 5.30

Q: Field request: pIC50 | item: O=C(O)CN1CC(NC(=O)c2cccc(-c3cccnc3)c2)CCC1=O (stereo not shown)
A: < 5.30

###

Biological target: truncated His-MBP-Tev-KLHDC2 (residues 1-363) (Homo sapiens)
Construct: truncated His -MBP-Tev-KLHDC2 (residues 1-363) purified from E. coli; made in house; host or cells: E. coli
Assay: KLHDC2 HTRF binding assay
Conditions: 1 nM KLHDC2 (residues 1-363), fluorescein-labeled diglycine peptide probe
pIC50: −log10 of the molar value.
Property label: pIC50

CCOC(=O)Cn1cc(NC(=O)c2ccc(CCCCCCNC(=O)OC(C)(C)C)c(-c3cccnc3)c2)ccc1=O; < 5.30

Q: Look at this molecule and give its reported pIC50. O=C(O)CCn1cc(NC(=O)c2cccc(-c3cccnc3)c2)ccc1=O
A: < 5.30

Q: For the molecule shown here, Cn1ccc2c(-c3ccc(=O)n(CC(=O)O)c3)cccc21 , give the reported pIC50.
A: < 5.30

###

Target: truncated His-MBP-Tev-KLHDC2 (residues 1-363) (Homo sapiens, UniProt Q9Y2U9)
Construct: truncated His -MBP-Tev-KLHDC2 (residues 1-363) purified from E. coli; made in house; host or cells: E. coli
Assay: KLHDC2 FP competition binding assay
Conditions: 15 nM KLHDC2 (residues 1-363), 10 nM fluorescein-labeled diglycine peptide probe, read-out: KLHDC2 binding Human FP: average external IC50
Listed here: items and their measured IC50.

Some compounds with known IC50 results, for comparison:
O=C(O)Cn1cc(NC(=O)c2ccc3cc(Cl)ccc3c2)ccc1=O; > 5 µM
CC(C)c1cc(=O)n(CC(=O)O)cc1NC(=O)c1cccc(-c2cccnc2)c1; 0.5 to 5 µM
Cc1ccc(C(F)(F)F)cc1-c1ccc(=O)n(CC(=O)O)c1; > 5 µM

Q: Find the recorded IC50 belonging to Cc1ccccc1-c1ccc(O)c(CC(=O)O)c1 and report it.
A: > 5 µM

Q: Looking for the measured IC50 of O=C(O)Cn1cc(NC(=O)[C@@H]2CCCN(c3cccnc3)C2)c(C(F)(F)F)cc1=O , can you help?
A: > 5 µM

###

Reported IC50 by item:
Molecular target: truncated His-MBP-Tev-KLHDC2 (residues 1-363) (Homo sapiens, UniProt Q9Y2U9)
Construct: truncated His -MBP-Tev-KLHDC2 (residues 1-363) purified from E. coli; made in house; host or cells: E. coli
Experiment: KLHDC2 FP competition binding assay
Settings: 15 nM KLHDC2 (residues 1-363), 10 nM fluorescein-labeled diglycine peptide probe, read-out: KLHDC2 binding Human FP: average external IC50

Some compounds with recorded IC50:
COc1ccc(-c2cc(C)ccc2C)cc1CC(=O)O [I-354]; > 5 µM
COc1cncc(-c2cccc(C(=O)Nc3ccc(=O)n(CC(=O)O)c3)c2)c1 [I-47]; 0.5 to 5 µM
COc1cc(-c2ccc(Cl)cc2)ccc1C(=O)Nc1ccc(=O)n(CC(=O)O)c1 [I-134]; 0.5 to 5 µM
CCc1cccc(-c2ccc(=O)n(CC(=O)O)c2)c1 [I-345]; > 5 µM
CCCOc1nc2ccccc2cc1C(=O)Nc1ccc(=O)n(CC(=O)O)c1 [I-188]; > 5 µM

Q: What is its IC50 for truncated His-MBP-Tev-KLHDC2 (residues 1-363) (Homo sapiens, UniProt Q9Y2U9)? Entry: COc1cccc(OCC(=O)Nc2ccc(=O)n(CC(=O)O)c2)c1 [I-261]
A: > 5 µM

Q: Any idea what IC50 came out for COc1cccc2c(N3CCC[C@H](C(=O)Nc4ccc(Cl)c(CC(=O)O)c4)C3)cncc12 [I-5] on truncated His-MBP-Tev-KLHDC2 (residues 1-363) (Homo sapiens, UniProt Q9Y2U9)?
A: 0.05 to 0.5 µM

Q: Please provide the recorded IC50 for Cc1ccc(C(=O)Nc2ccc(=O)n(CC(=O)O)c2)cc1-c1cccnc1 [I-202] , tested on truncated His-MBP-Tev-KLHDC2 (residues 1-363) (Homo sapiens, UniProt Q9Y2U9).
A: 0.5 to 5 µM

Q: Lab note: need IC50 with truncated His-MBP-Tev-KLHDC2 (residues 1-363) (Homo sapiens, UniProt Q9Y2U9) for entry Cc1cc(-c2ccc(=O)n(CC(=O)O)c2)ccc1OCc1ccccc1 [I-323] , please look it up.
A: > 5 µM

Q: Write down the reported IC50 of O=C(O)Cn1cc(N2Cc3cccc(-c4cccnc4)c3C2=O)ccc1=O [I-80] , test system: truncated His-MBP-Tev-KLHDC2 (residues 1-363) (Homo sapiens, UniProt Q9Y2U9).
A: > 5 µM

Q: Query the reported IC50 for truncated His-MBP-Tev-KLHDC2 (residues 1-363) (Homo sapiens, UniProt Q9Y2U9); item: COc1cc2ccccc2cc1C(=O)Nc1ccc(=O)n(CC(=O)O)c1 [I-320]
A: > 5 µM

Q: API: value(readout= IC50, system= truncated His-MBP-Tev-KLHDC2 (residues 1-363) (Homo sapiens, UniProt Q9Y2U9), query= O=C(Nc1ccc(=O)n([C@@H](F)C(=O)O)c1)c1cccc(-c2cccnc2)c1 [I-51] )
A: > 5 µM

Q: Any idea what IC50 came out for NC(=O)Cc1cccc(-c2ccc(=O)n(CC(=O)O)c2)c1 [I-302] on truncated His-MBP-Tev-KLHDC2 (residues 1-363) (Homo sapiens, UniProt Q9Y2U9)?
A: > 5 µM

Q: Query for truncated His-MBP-Tev-KLHDC2 (residues 1-363) (Homo sapiens, UniProt Q9Y2U9): what IC50 does the record show for O=C(O)Cn1cc(NC(=O)COc2cccc(Cl)c2)ccc1=O [I-265] ?
A: > 5 µM

Q: Recorded IC50 for O=C(O)Cn1cc(-c2cccc(Cl)c2)ccc1=O [I-375] with truncated His-MBP-Tev-KLHDC2 (residues 1-363) (Homo sapiens, UniProt Q9Y2U9), please?
A: > 5 µM

Q: Give the reported IC50 for CC(Cc1ccccc1Cl)C(=O)Nc1ccc(=O)n(CC(=O)O)c1 (centres unmarked) [I-310] (system: truncated His-MBP-Tev-KLHDC2 (residues 1-363) (Homo sapiens, UniProt Q9Y2U9)).
A: > 5 µM

Q: Give recorded IC50 with truncated His-MBP-Tev-KLHDC2 (residues 1-363) (Homo sapiens, UniProt Q9Y2U9) for the following compound: O=C(O)Cn1cc(-c2cccc(F)c2)ccc1=O [I-420]
A: > 5 µM
